Assay: acid dissociation constant pKa of secondary amines of formula (II)
Details: in water at room temperature (about 25° C.)
property-measured: pKa
Would you mind answering with just the numeric figure?

Q. Any idea what its pKa is? The compound is `CC(C)NCCC#N`
A. 8.0

Q. Any idea what its pKa is? The compound is `OCCNCCNCCO`
A. 9.2

Q. Any idea what its pKa is? The compound is `C1CCCNCC1`
A. 10.9

Q. Any idea what its pKa is? The compound is `C1NCC2CNCC1C2`
A. 11.3

Q. Any idea what its pKa is? The compound is `CNC`
A. 10.9

Q. Any idea what its pKa is? The compound is `CNCC(=O)N(C)C`
A. 8.8

Q. Any idea what its pKa is? The compound is `CC1CCNCC1`
A. 10.8

Q. Any idea what its pKa is? The compound is `CCCCNCCC#N`
A. 8.3

Q. Any idea what its pKa is? The compound is `CNCCCCO`
A. 9.6

Q. Any idea what its pKa is? The compound is `CCNCCO`
A. 10.1

Q. Any idea what its pKa is? The compound is `CCOC(=O)N1CCNCC1`
A. 8.3

Q. Any idea what its pKa is? The compound is `CCN(CC)CCNC`
A. 9.9

Q. Any idea what its pKa is? The compound is `CCNCCNCC`
A. 10.2

Q. Any idea what its pKa is? The compound is `CCNC[Si](C)(C)C`
A. 11.1
